biological target: Cytochrome P450 2D6 (Homo sapiens) (UniProt P10635); assay: Cytochrome panel assay with activity outcomes; settings: recombinant CYP, pro-luciferin dealkylation, luminescence, p450-cyp2d6; series mostly up to 57.1 µM
Sequence (P10635 whole entry, looked up): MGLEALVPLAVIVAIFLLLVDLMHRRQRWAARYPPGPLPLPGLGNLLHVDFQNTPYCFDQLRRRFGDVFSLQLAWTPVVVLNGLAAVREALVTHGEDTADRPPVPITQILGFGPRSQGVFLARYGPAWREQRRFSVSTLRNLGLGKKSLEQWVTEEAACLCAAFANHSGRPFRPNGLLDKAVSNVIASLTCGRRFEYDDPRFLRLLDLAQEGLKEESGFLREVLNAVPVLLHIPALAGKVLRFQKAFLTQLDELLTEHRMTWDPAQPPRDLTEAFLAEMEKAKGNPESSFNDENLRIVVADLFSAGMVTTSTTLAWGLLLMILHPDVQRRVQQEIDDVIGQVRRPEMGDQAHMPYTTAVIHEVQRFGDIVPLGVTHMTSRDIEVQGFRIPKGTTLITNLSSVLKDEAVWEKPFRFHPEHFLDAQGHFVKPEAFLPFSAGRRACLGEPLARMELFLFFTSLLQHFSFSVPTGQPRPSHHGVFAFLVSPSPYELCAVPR
The whole screen tested about 16,000 compounds, of which about 2,600 (16%) were called active. Not shown: some 20% with an inconclusive outcome. Calls follow the shape of the dose curve; as a rule, active = well fitted curve in the direction sought with a large enough effect; inconclusive = small, poorly fitted or top-dose-only effect, or effect the other way; inactive = no such curve, though single readings can be large or run the other way. A selection follows.
The reply should be one of these categories: active, inactive

Task item: Record lookup: outcome of this test for "O=S(=O)(c1ccccc1)c1cnn2c(C(F)(F)F)cc(-c3ccc(F)cc3)nc12" ?
Reply: inactive

Task item: Record lookup: outcome of this test for "C=CCNc1nc(Cl)nc(Nc2ccc(OC)cc2)n1" ?
Reply: inactive

Task item: Record lookup: outcome of this test for "CC(=O)c1c(O)cc(=O)n(-c2ccccc2)c1-c1cccc2ccccc12" ?
Reply: inactive

Task item: Record lookup: outcome of this test for Cc1ccc(NC(=O)C2CC(=O)n3c(nc4ccccc43)N2)cc1 (centres undefined) ?
Reply: inactive

Task item: Record lookup: outcome of this test for Cc1ccc2nc(C3CCCN(C(=S)Nc4ccccc4C)C3)[nH]c2c1 (centres undefined) ?
Reply: active

Task item: Record lookup: outcome of this test for Cc1ccccc1N(C(=O)Cc1cccs1)C(C(=O)NCC1CCCO1)c1cccnc1 (centres undefined) ?
Reply: inactive

###

molecular target: Cytochrome P450 2D6 (Homo sapiens); test: Cytochrome panel assay with activity outcomes; details: recombinant CYP, pro-luciferin dealkylation, luminescence, p450-cyp2d6; series mostly up to 57.1 µM
Out of some 16,000 compounds screened, about 2,600 (16%) were called active. About 20% were inconclusive and are not listed. Calls follow the shape of the dose curve; as a rule, active = well fitted curve in the direction sought with a large enough effect; inconclusive = small, poorly fitted or top-dose-only effect, or effect the other way; inactive = no such curve, though single readings can be large or run the other way. These entries were drawn from the full list.
The reply should be one of these categories: active, inactive

Task item: Record lookup: outcome of this test for "COC(=O)c1c(-c2cc(OC)c(OC)c(OC)c2)c2ccc(OCc3ccccn3)cc2c(=O)n1-c1ccc(N)cc1" ?
Reply: inactive

Task item: Record lookup: outcome of this test for "COc1ncc2nc(-c3cn(C)c4ccccc34)c(=O)n(CCC#N)c2n1" ?
Reply: inactive

Task item: Record lookup: outcome of this test for "CCOc1ccc(-n2c(SCC(=O)Nc3ccc(OC)cc3OC)nc3c(c2=O)SCC3)cc1" ?
Reply: active

Task item: Record lookup: outcome of this test for "CCNc1ncc2nc(-c3cn(C)c4ccccc34)c(=O)n(CCC#N)c2n1" ?
Reply: active

Task item: Record lookup: outcome of this test for "CCOC(=O)N1CCN(S(=O)(=O)c2ccc(C(=O)Nc3ccc(F)cc3F)cc2)CC1" ?
Reply: inactive

Task item: Record lookup: outcome of this test for "CCNc1ncc2nc(-c3cccs3)c(=O)n(C)c2n1" ?
Reply: inactive

Task item: Record lookup: outcome of this test for "CN=C(N)/N=C(\N)Nc1cc2ccccc2c2ccccc12" ?
Reply: active

###

biological target: Cytochrome P450 2D6 (Homo sapiens); test: Cytochrome panel assay with activity outcomes; conditions: recombinant CYP, pro-luciferin dealkylation, luminescence, p450-cyp2d6; series mostly up to 57.1 µM
Screen size: about 16,000 compounds; about 2,600 (16%) were called active. Not shown: some 20% with an inconclusive outcome. Calls come from the whole dose curve; as a rule, active = well fitted curve in the direction sought with a large enough effect; inconclusive = small, poorly fitted or top-dose-only effect, or effect the other way; inactive = no such curve, though single readings can be large or run the other way. A selection follows.
The reply should be one of these categories: T for active, F for inactive

Reference set (6 entries):
COC(=O)CSC(C(=O)Nc1ccc(C)c(C)c1)c1ccccc1 (configuration not stated)	F
O=C(N/N=C/c1ccc(Cl)cc1)Nc1ccccc1	F
Clc1ccc(Cc2nc(-c3cccnc3)no2)cc1	T
C[C@H](N)C(=O)O	F
Cc1cccc2c1OCC/C2=N\NC(=O)COc1ccccc1	F
Cc1ccc(C)c(CN2C(=O)C3CCCN3c3ccc(S(=O)(=O)N4CCOCC4)cc32)c1 (configuration not stated)	F

Task item: Record lookup: outcome of this test for "COc1cc(OC)cc(C(=O)Nn2cc(C(=O)N3CCN(C)CC3)c3ccccc3c2=O)c1" ?
Reply: F

Task item: Record lookup: outcome of this test for "COCC(=O)N1CCC2(CCCN(Cc3ccccc3)C2)CC1" ?
Reply: F

Task item: Record lookup: outcome of this test for "O=S(=O)(c1ccc(Cl)cc1)c1cnc(-c2cccnc2)nc1-c1ccccc1" ?
Reply: F

Task item: Record lookup: outcome of this test for CC(CCc1ccccc1)NC(=O)/C=C/c1ccccc1 (configuration not stated) ?
Reply: F

Task item: Record lookup: outcome of this test for CSc1nsc(SC)c1NC(=O)OCC1CCCO1 (configuration not stated) ?
Reply: F

Task item: Record lookup: outcome of this test for "CC(C)OC(=O)c1cc2ccccc2oc1=O" ?
Reply: F

###

molecular target: Cytochrome P450 2D6 (Homo sapiens) (UniProt P10635); assay: Cytochrome panel assay with activity outcomes; settings: recombinant CYP, pro-luciferin dealkylation, luminescence, p450-cyp2d6; series mostly up to 57.1 µM; as to activity, negative = inhibition: % is scaled to controls: 0 for no effect and ±100 for the full control effect
In all, about 16,000 compounds went through this assay and about 2,600 (16%) were called active. Another 20% or so got no clear call; they are omitted. These entries were drawn from the full list.
Readout Type: activity, negative = inhibition

The following compounds have reported results that may help.
CO[C@H]1COC(=O)C/C=C\[C@@H](C)[C@H](OC)COC(=O)[C@H]2CCCN2C(=O)C/C=C\[C@@H]1C	18.5% [at 11.4 µM] (inactive)
CC(=O)OC[C@@H]1O[C@H](CCO/N=C\[C@@H](C)[C@H](OCc2ccccc2)C(C)C)C=C[C@@H]1OC(C)=O	-18.8% [at 11.4 µM] (inactive)
CCOC(=O)C1=C(C)NC(=O)N[C@@H]1c1coc2cc(C)cc(C)c2c1=O	0.866% [at 11.4 µM] (inactive)

Task item: Recorded activity, negative = inhibition for "Cc1ccc(-c2nc(-c3nccc4ccccc34)oc2-c2ccccc2)cc1" , please?
Reply: -9.6% [at 11.4 µM] (inactive)

Task item: Recorded activity, negative = inhibition for "CC(=O)OC[C@@H]1O[C@H](C/C=N\OC[C@@H](C)[C@H](OCc2ccccc2)C(C)C)C=C[C@@H]1OC(C)=O" , please?
Reply: -1.74% [at 11.4 µM] (inactive)

Task item: Recorded activity, negative = inhibition for "O=S1(=O)N[C@H]2CC[C@@H]3NS(=O)(=O)N[C@H]4CC[C@H](N1)N4S(=O)(=O)N23" , please?
Reply: 12.7% [at 11.4 µM] (inactive)

Task item: Recorded activity, negative = inhibition for "COC(=O)[C@@H]1CC[C@H](C)[C@@H](c2ccc(C)cc2)N1C(=O)c1ccc(/C=N\O[C@@H]2O[C@H](COC(C)=O)[C@H](OC(C)=O)[C@H](OC(C)=O)[C@H]2OC(C)=O)cc1" , please?
Reply: -6.2% [at 11.4 µM] (inactive)

###

biological target: Cytochrome P450 2D6 (Homo sapiens) (UniProt P10635); assay: Cytochrome panel assay with activity outcomes; conditions: recombinant CYP, pro-luciferin dealkylation, luminescence, p450-cyp2d6; series mostly up to 57.1 µM
In all, about 16,000 compounds went through this assay and about 2,600 (16%) were called active. About 20% were inconclusive and are not listed. The call rests on the fitted dose curve; in most records, active means well fitted curve in the direction sought with a large enough effect; inconclusive means small, poorly fitted or top-dose-only effect, or effect the other way; inactive means no such curve, though single readings can be large or run the other way. Only a sample is shown.
The reply should be one of these categories: active, inactive

COC(=O)N1CCC[C@@]2(CCN(c3ncccn3)C2)C1	inactive

Task item: Record lookup: outcome of this test for "Cc1nc(NS(=O)(=O)c2ccccc2C)c2c3c(sc2n1)CCC3" ?
Reply: inactive

Task item: Record lookup: outcome of this test for CCOC(=O)c1ccc(NC(=O)C2CCCO2)cc1 (stereo unspecified) ?
Reply: inactive

Task item: Record lookup: outcome of this test for "O=C(c1cc(C(F)(F)F)cc(C(F)(F)F)c1)N1CCC2(CC1)CN(c1ccccc1)C2" ?
Reply: inactive

Task item: Record lookup: outcome of this test for "O=C(OCc1nc2ccccc2[nH]1)C12CC3CC(CC(C3)C1)C2" ?
Reply: active

Task item: Record lookup: outcome of this test for "CC(=O)OCC(=O)[C@@]1(O)CC[C@@H]2[C@H]3CCC4=CC(=O)CC[C@]4(C)[C@]3(F)[C@@H](O)C[C@@]21C" ?
Reply: inactive

Task item: Record lookup: outcome of this test for "O=C(Oc1ccccc1)N1CCC[C@@]2(CCN(c3ncccn3)C2)C1" ?
Reply: inactive

Task item: Record lookup: outcome of this test for "O=C(Oc1ccccc1)N1CCC2(CC1)CN(c1ccccn1)C2" ?
Reply: inactive

Task item: Record lookup: outcome of this test for "O=C(c1ccncc1)N1CCC[C@@]2(CCN(c3ccccn3)C2)C1" ?
Reply: inactive

Task item: Record lookup: outcome of this test for "CC(C)=C1C(=O)C(c2ccccc2)=C2CN3C(=O)N(CCc4ccccc4)C(=O)[C@]3(Cc3ccccc3)[C@H]21" ?
Reply: inactive

Task item: Record lookup: outcome of this test for "CC(=O)N(CC(=O)O)c1ccccc1C(=O)O" ?
Reply: inactive

###

Biological target: Cytochrome P450 2D6 (Homo sapiens)
Assay: Cytochrome panel assay with activity outcomes
Conditions: recombinant CYP, pro-luciferin dealkylation, luminescence, p450-cyp2d6; series mostly up to 57.1 µM
Procedure: The P450 gene superfamily is involved in the metabolism and clearance of xenobiotics. This assay used various human CYP P450 isozymes to measure the dealkylation of various pro-luciferin substrates to luciferin. The luciferin is then measured by luminescence after the addition of a luciferase detection reagent. […] Inhibitors and some substrates limit the production of luciferin, and decrease measured luminescence. […] 8, Detection, 1 sec, ViewLux luminescent read […]
The whole screen tested about 16,000 compounds, of which about 2,600 (16%) were called active. Inconclusive results (about 20%) are left out. Calls come from the whole dose curve; as a rule, active = well fitted curve in the direction sought with a large enough effect; inconclusive = small, poorly fitted or top-dose-only effect, or effect the other way; inactive = no such curve, though single readings can be large or run the other way. The list is a sample of the results.
The reply should be one of these categories: active, inactive

CS(=O)(=O)N1CCC2(CC1)CN(c1cccc(-c3ccccc3)c1)C2	inactive

Task item: Record lookup: outcome of this test for "CCN(CC)S(=O)(=O)c1ccc2c3c(cccc13)C(=O)S2" ?
Reply: active

Task item: Record lookup: outcome of this test for "COc1ccc(-c2cc(CNC(C)=O)on2)cc1" ?
Reply: inactive

Task item: Record lookup: outcome of this test for "O=C1c2ccccc2CC[C@H]1CNCCc1ccc(O)cc1" ?
Reply: active

Task item: Record lookup: outcome of this test for "O=C(CSc1nc2ccccc2s1)N1c2ccccc2Sc2ccc(C(F)(F)F)cc21" ?
Reply: inactive
